- System: progranulin (PGRN) secretion, BV-2 cells
- experimental protocol: PGRN assay: progranulin induction cellular assay (ELISA of secreted mouse PGRN)
- Format: cell-based
- condition notes: Mus musculus, BV-2, PGRN assay, Table D; secreted mouse PGRN in cell culture medium, ELISA
pEC50: −log10 of the molar value.
Each entry below carries its reported pEC50.
endpoint: pEC50

>>> data_value("O=C(N[C@H]1CNCC1(F)F)N1CCc2ccccc2[C@@H]1c1ccc(F)cc1 (stereo in doubt) [Compound 2243]")
6.44
>>> data_value("NC[C@H]1CCN(C(=O)N2CCc3ccccc3[C@@H]2c2ccc(F)cc2)C1 [Compound 2288]")
6.61
>>> data_value("O=C(OC[C@]1(F)CCNC1)N1CCc2ccccc2[C@@H]1c1ccc(F)cc1 [Compound 2256]")
6.77
>>> data_value("O=C(O[C@@H]1CNC[C@@H]1F)N1CCc2ccccc2[C@@H]1c1ccc(F)cc1 [Compound 2363]")
6.98
>>> data_value("O=C(N[C@@H]1CNCCOC1)N1CCc2ccccc2[C@@H]1c1ccc(F)cc1 (single isomer, unassigned) [Compound 2277]")
5.97
>>> data_value("CN1CC[C@@H](NC(=O)N2CCc3ccccc3[C@@H]2c2ccc(F)cc2)C1 [Compound 2245]")
6.34
>>> data_value("CN(C(=O)N1CCc2ccccc2[C@@H]1c1ccc(F)cc1)[C@@H]1CCCNC1 (single isomer, unassigned) [Compound 2213]")
5.45

###

- System: progranulin (PGRN) secretion, BV-2 cells
- experimental protocol: PGRN assay: progranulin induction cellular assay (ELISA of secreted mouse PGRN)
- Type: cell-based
- condition notes: Mus musculus, BV-2, PGRN assay, Table D; secreted mouse PGRN in cell culture medium, ELISA
pEC50: −log10 of the molar value.
Lab note: anything with pEC50 at or over 6 counts as class 1; the rest go in class 0.

>>> class_label("O=C(NCC1CNC[C@@H]1O)N1CCc2ccccc2[C@@H]1c1ccc(F)cc1 (stereo partly shown) [Compound 2308]")
"class 0"
>>> class_label("NC[C@@H]1CN(C(=O)N2CCc3ccccc3[C@@H]2c2ccc(F)cc2)CCO1 [Compound 2302]")
"class 1"
>>> class_label("CN1C[C@@H](NC(=O)N2CCc3ccccc3[C@@H]2c2ccc(F)cc2)C2(CC2)C1 (single isomer, unassigned) [Compound 2317]")
"class 0"
>>> class_label("O=C(N[C@H]1CNC[C@H]1F)N1CCc2ccccc2[C@@H]1c1ccc(F)cc1 [Compound 2352]")
"class 1"
>>> class_label("CN1[C@@H]2CC[C@H]1[C@@H](NC(=O)N1CCc3ccccc3[C@@H]1c1ccc(F)cc1)C2 [Compound 2224]")
"class 1"
>>> class_label("CN(C)C[C@H]1CCN(C(=O)N2CCc3ccccc3[C@@H]2c2ccc(F)cc2)C1 [Compound 2314]")
"class 0"
>>> class_label("O=C(NC[C@@H]1CCCN1)N1CCc2ccccc2[C@@H]1c1ccc(F)cc1 [Compound 2217]")
"class 0"
>>> class_label("CN1C[C@@H](NC(=O)N2CCc3ccccc3[C@H]2c2ccc(F)cc2)C2(CC2)C1 (single isomer, unassigned) [Compound 2318]")
"class 0"
>>> class_label("CN1CC[C@H](O)[C@@H](O)[C@@H]1COC(=O)N1CCc2ccccc2[C@@H]1c1ccc(F)cc1 (single isomer, unassigned) [Compound 2304]")
"class 0"
>>> class_label("CN1C[C@H](NC(=O)N2CCc3ccccc3[C@@H]2c2ccc(F)cc2)C(F)(F)C1 [Compound 2294]")
"class 0"
>>> class_label("CN1C[C@@H](N(C)C(=O)N2CCc3ccccc3[C@@H]2c2ccc(F)cc2)C(F)(F)C1 [Compound 2298]")
"class 0"
>>> class_label("O=C(NC[C@H]1CCCNC1)N1CCc2ccccc2[C@@H]1c1ccc(F)cc1 (single isomer, unassigned) [Compound 2220]")
"class 0"
>>> class_label("O=C(NC[C@@H]1CCCN1)N1CCc2ccccc2[C@H]1c1ccc(F)cc1 [Compound 2218]")
"class 0"
>>> class_label("CN1CC[C@@H](O)[C@H](O)[C@H]1COC(=O)N1CCc2ccccc2[C@@H]1c1ccc(F)cc1 [Compound 2289]")
"class 0"

###

- Tested on: progranulin (PGRN) secretion, BV-2 cells
- experimental protocol: PGRN assay: progranulin induction cellular assay (ELISA of secreted mouse PGRN)
- Format: cell-based
- condition notes: Mus musculus, BV-2, PGRN assay, Table D; secreted mouse PGRN in cell culture medium, ELISA
endpoint: EC50 (nM)

>>> data_value("O=C(N[C@H]1CNCC12CC2)N1CCc2ccccc2[C@@H]1c1ccc(F)cc1")
1180
>>> data_value("O=C(NC[C@@H]1CNCCO1)N1CCc2ccccc2[C@@H]1c1ccc(F)cc1")
730
>>> data_value("CN1CCC(NC(=O)N2CCc3ccccc3[C@@H]2c2ccc(F)cc2)CC1")
720
>>> data_value("CN1[C@H]2CC[C@@H]1[C@H](NC(=O)N1CCc3ccccc3[C@@H]1c1ccc(F)cc1)C2 (single isomer, unassigned)")
1010
>>> data_value("O=C(O[C@H]1CNCCOC1)N1CCc2ccccc2[C@@H]1c1ccc(F)cc1")
1280
>>> data_value("O=C(NCC1(F)CNC1)N1CCc2ccccc2[C@@H]1c1ccc(F)cc1")
1040
